# experimentalProtocol: inhibition of PAO1 biofilm formation – strain PAO1, LB-PBS medium, absorbance 600 nm, primary screen (AID 1176); note: test concentration not given here
# conditionInfo: P. aeruginosa PAO1 growth/biofilm, A600, 12 h; higher = more signal
# binarize z-score: threshold 0.4 inclusive, high side TRUE, low side FALSE

compound	classification
C=CCC(OC(C)=O)[C@@H]1[C@@H](N(Cc2cc3ccccc3o2)C(=O)c2ccc(C)cc2)c2cc(OCCCO)ccc2N1C(=O)c1ccc(-c2ccccc2)cc1 (some centres undefined)	TRUE
CN1C(=O)C2C=CC(C(O)c3ccccc3)N(NC(=O)OC(C)(C)C)C2C1=O (centres undefined)	FALSE
COC(=O)[C@@]1(Cc2ccc(OC)cc2)[C@H]2c3cc(C(=O)N4CCCC4)n(C[C@H](O)CO)c3C[C@H]2CN1C(=O)c1ccccc1	FALSE
COc1c(C)cc(-c2cc3c(c(-c4ccccc4)n2)[Si](C(C)C)(C(C)C)O[C@H]3c2ccccc2)cc1C	FALSE
COCCCNC(=O)[C@@]1(C)c2ccccc2C(=O)N(Cc2ccccc2)[C@H]1c1ccc(CO)cc1	TRUE
COC(=O)[C@@]1(Cc2ccc(F)cc2)[C@H]2c3cc(C(=O)N(C)C)n(CCCNc4ccc(C(F)(F)F)cc4Cl)c3C[C@H]2CN1C(=O)c1ccccc1	TRUE
COCCn1c(C(=O)N2CCCC2)cc2c1C[C@H]1CN(C(=O)c3ccccc3)[C@@](Cc3ccc(OC)cc3)(C(=O)OC)[C@@H]21	TRUE
O=C1OCC=C[C@H]2OC34C=CCN(Cc5ccccc5)C(=O)[C@H]3N(CCCO)C(=O)[C@@H]4[C@@H]12 (some centres undefined)	FALSE
O=C1C[C@@](C(=O)O)(c2ccc([N+](=O)[O-])cc2)[C@@H](c2ccc(CO)cc2I)N1CC12CC3CC(CC(C3)C1)C2	TRUE
